The values you see were collected from ChEMBL document CHEMBL1201862.

Measurement Target: Tyrosyl-DNA phosphodiesterase 1 (Homo sapiens)
Procedure Summary: qHTS for Inhibitors of human tyrosyl-DNA phosphodiesterase 1 (TDP1): qHTS in cells in absence of CPT.
Format: functional
About 64,000 (15%) of roughly 420,000 compounds were called active. Not shown: some 27% with an inconclusive outcome. This excerpt belongs to a sample that is enriched for actives.
The molecules listed here are annotated with their Potency.

Molecule	Potency
O=C(/C=C/c1ccc(Cl)cc1)c1cccs1	7.5 µM (active)
COc1ccccc1/C=C/C(=O)c1cccs1	5.96 µM (active)
ICCCCN1C=S(CI)c2ccccc21 (stereo not given)	8.91 µM (active)
Cc1cccc2c1N(CCCCI)C=S2C (stereo not given)	3.98 µM (active)
CCOc1ccc(N2C(=O)c3ccccc3N/C2=C\N2CCN(C(=O)c3ccco3)CC2)cc1	10 µM (active)
